The entries below are paired with their reported relative viability.
Test system: 201T
protocol-description: relative viability (nuclei count vs DMSO), 5 days (fraction); higher = more cells survive
condition-details: first compound 0.2 µM
Give the figure only, with no unit attached.

COCC1(CO)C(=O)C2CCN1CC2 (centres undefined) [PRIMA-1MET] + N=C(N)NC(=N)NCCc1ccccc1 [Phenformin] (partner 250 µM) = 0.444
COCC1(CO)C(=O)C2CCN1CC2 (centres undefined) [PRIMA-1MET] + NC(=O)Nc1cc(-c2cccc(F)c2)sc1C(=O)N[C@H]1CCCNC1 [AZD7762] (partner 0.2 µM) = 0.484
COCC1(CO)C(=O)C2CCN1CC2 (centres undefined) [PRIMA-1MET] + Nc1ncn([C@H]2C[C@H](O)[C@@H](CO)O2)c(=O)n1 [Decitabine] (partner 2 µM) = 0.921

Please list relative viability recorded for the compound COCC1(CO)C(=O)C2CCN1CC2 (centres undefined) [PRIMA-1MET] + C[C@]1(O)C[C@@H](c2nc(-c3ccc4ccc(-c5ccccc5)nc4c3)c3c(N)nccn32)C1 [Linsitinib] (partner 1 µM)
1.11

====

System: NCI-H2405
protocol-description: relative viability (nuclei count vs DMSO), 5 days (fraction); higher = more cells survive
condition-details: first compound 0.08 µM
assay-readout: relative viability

Use the examples below as a reference point.
O=c1cc(-c2cccc3c2Sc2ccccc2S3)oc(N2CCOCC2)c1 + O=C(CCCCCCC(=O)Nc1ccccc1)NO [Vorinostat] (partner 1 µM) = 0.925
COc1nc(C)cnc1NS(=O)(=O)c1cccnc1-c1ccc(-c2nnco2)cc1 [Zibotentan] + C[C@]1(O)C[C@@H](c2nc(-c3ccc4ccc(-c5ccccc5)nc4c3)c3c(N)nccn32)C1 [Linsitinib] (partner 1 µM) = 1.07
O=c1cc(-c2cccc3c2Sc2ccccc2S3)oc(N2CCOCC2)c1 + C[C@]1(O)C[C@@H](c2nc(-c3ccc4ccc(-c5ccccc5)nc4c3)c3c(N)nccn32)C1 [Linsitinib] (partner 1 µM) = 0.878
O=c1cc(-c2cccc3c2Sc2ccccc2S3)oc(N2CCOCC2)c1 + Cc1nc(NC(=O)N2CCC[C@H]2C(N)=O)sc1-c1ccnc(C(C)(C)C(F)(F)F)c1 [Alpelisib] (partner 2 µM) = 0.749

Consider the additional molecule presented here.
Please report relative viability with NCI-H2405 for item O=c1cc(-c2cccc3c2Sc2ccccc2S3)oc(N2CCOCC2)c1 + CC(=O)c1c(C)c2cnc(Nc3ccc(N4CCNCC4)cn3)nc2n(C2CCCC2)c1=O [Palbociclib] (partner 0.5 µM) .
0.523

====

Test system: NCI-H23
protocol-description: relative viability (nuclei count vs DMSO), 5 days (fraction); higher = more cells survive
condition-details: first compound 0.253 µM
assay-readout: relative viability
Give the figure only, with no unit attached.

Use the examples below as a reference point.
COc1nc(C)cnc1NS(=O)(=O)c1cccnc1-c1ccc(-c2nnco2)cc1 [Zibotentan] + O=C(CCCCCCC(=O)Nc1ccccc1)NO [Vorinostat] (partner 1 µM) = 0.497
COc1nc(C)cnc1NS(=O)(=O)c1cccnc1-c1ccc(-c2nnco2)cc1 [Zibotentan] + C[C@@H](Oc1cc(-c2cnn(C3CCNCC3)c2)cnc1N)c1c(Cl)ccc(F)c1Cl [Crizotinib] (partner 1 µM) = 0.552
O=c1cc(-c2cccc3c2Sc2ccccc2S3)oc(N2CCOCC2)c1 + CC(=O)Nc1cccc(-n2c(=O)n(C3CC3)c(=O)c3c(Nc4ccc(I)cc4F)n(C)c(=O)c(C)c32)c1 [Trametinib] (partner 0.02 µM) = 0.418

Please report relative viability with NCI-H23 for item O=c1cc(-c2cccc3c2Sc2ccccc2S3)oc(N2CCOCC2)c1 + CC1(C)CCC(c2ccc(Cl)cc2)=C(CN2CCN(c3ccc(C(=O)NS(=O)(=O)c4ccc(N[C@H](CCN5CCOCC5)CSc5ccccc5)c(S(=O)(=O)C(F)(F)F)c4)cc3)CC2)C1 [Navitoclax] (partner 0.5 µM) .
1.01
